# Assay target: CtHtrA (Chlamydia trachomatis serovar D)
# Construct: His-tag; made in house; host or cells: E. coli BL21 (DE3), plasmid pETHtrA
# Sequence (P18584 17-497): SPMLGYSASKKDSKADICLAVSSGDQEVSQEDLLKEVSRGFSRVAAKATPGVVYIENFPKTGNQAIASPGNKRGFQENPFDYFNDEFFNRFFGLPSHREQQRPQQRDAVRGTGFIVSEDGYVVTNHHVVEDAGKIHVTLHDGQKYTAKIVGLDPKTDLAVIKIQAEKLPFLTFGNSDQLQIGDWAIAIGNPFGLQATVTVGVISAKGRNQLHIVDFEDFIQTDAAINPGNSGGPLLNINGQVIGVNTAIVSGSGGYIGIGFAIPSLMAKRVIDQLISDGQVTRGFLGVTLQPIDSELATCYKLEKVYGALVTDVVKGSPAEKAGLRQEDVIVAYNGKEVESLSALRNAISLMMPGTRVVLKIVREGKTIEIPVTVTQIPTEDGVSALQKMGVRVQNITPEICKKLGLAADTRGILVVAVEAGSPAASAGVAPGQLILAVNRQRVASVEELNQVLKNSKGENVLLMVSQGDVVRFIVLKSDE
# Assay overview: Protease assay and kinetic analysis with pNA-labelled peptide substrates
# Assay type: biochemical
# Cond: pNA peptide as substrate; absorbance 405 nm, 37°C
No end group written: not given here. *: point of attachment. pNA = O=[N+]([O-])c1ccc(N*)cc1
Assay endpoint: Kcat/Km
Answer format: value, then unit.

Substance: PMFKLI-pNA [pNA peptide substrate, 1 residue less]
Kcat/Km: 526.7 M⁻¹ s⁻¹
//
Substance: DMPFKLT-pNA [Model E. coli substrate, T at P1]
Kcat/Km: 158.7 M⁻¹ s⁻¹
//
Substance: DPMFKQT-pNA [Model E. coli substrate, change P1 and P2]
Kcat/Km: 542.2 M⁻¹ s⁻¹

Next:
# Kcat/Km of DPMFKLV-pNA [previously published E. coli DegP substrate [22], reference compound] = 241.2 M⁻¹ s⁻¹
